From: BindingDB's records for patent US10202378

Target: Transcription initiation factor TFIID subunit 1 [1504-1635] (Homo sapiens)
Construct: 1504-1635
Sequence (P21675 whole entry): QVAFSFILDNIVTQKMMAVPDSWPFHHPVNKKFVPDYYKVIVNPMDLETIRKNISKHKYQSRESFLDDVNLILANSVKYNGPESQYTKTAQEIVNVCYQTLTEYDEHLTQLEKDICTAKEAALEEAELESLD
Assay: TR-FRET Binding Assay
The following compounds are listed with their measured IC50 values.
Write the number in µM without appending the unit.

Reference set, count: 3
Bench note: what IC50 did Cc1[nH]c2c(=O)n(C)cc(C#CC(C)(C)O)c2c1C(=O)OCC1CC1 show?
0.0528

What measured IC50 goes with CCOC(=O)c1c(C)[nH]c2c(=O)n(CC3CC3)cc(C#CC(C)(C)O)c12 ?
0.155

Could you share which IC50 value was measured for CCOC(=O)c1c(C)[nH]c2c(=O)n(C)cc(C#CC(C)(O)C3CCOC3)c12 (configuration not stated) ?
0.181

More entries:
For the compound shown here, CCOC(=O)c1c(C)[nH]c2c(=O)n(C)cc(C#CC(C)(O)CNc3ccccc3)c12 (configuration not stated) , give the reported IC50.
14.8

Field request: IC50 | item: CCOC(=O)c1c(C)[nH]c2c(=O)n(C)cc(C#CC(C)(O)CO)c12 (configuration not stated)
0.1

Please look up its IC50: CCOC(=O)c1c(C)[nH]c2c(=O)n(C)cc(C#CC(C)(O)C3(C)CC3)c12 (configuration not stated)
0.0727

# lookup: IC50 of CCOC(=O)c1c(C)[nH]c2c(=O)n(C)cc(C#CC(C)(O)c3cccc(C)c3)c12 (configuration not stated)
0.0509

----------
Biological target: Transcription initiation factor TFIID subunit 1 [1381-1497] (Homo sapiens, UniProt P21675)
Construct: 1381-1497
Assay: TAF1-BD1 TR-FRET Binding Assay
Protocol: Specifically, in a 384 well ProxiPlate, TAF1-BDI (0.08 uM final) in 50 mM HEPES (pH 7.5; final), 50 mM NaCl (final), 1 mM TCEP (final), 0.1 mg/mL BSA (final), and 0.069 mM Brij-35 (final) was added either in the presence of DMSO (final 0.2% DMSO) or compound dilution series in DMSO. […] After forty minutes of equilibration at room temperature, the plates were read on an Envision instrument and IC50s calculated using a four parameter logistic model (XLFIT).
pIC50: −log10 of the molar value.
pIC50 of 6 or higher: Satisfied. Under 6: Not satisfied.

Worked examples, 10 compounds total:
Decide: is the reported value of pIC50 for CCOC(=O)c1c(C)[nH]c2c(=O)n(C)cc(C#CC(C)(O)C3CC3)c12 (stereo not drawn) [US10202378, Example 77] equal to or greater than 6?
Satisfied

# bool: pIC50 of CCC(C)C(C)OC(=O)c1c(C)[nH]c2c(=O)n(C)cc(C#CC(C)(C)O)c12 (stereo not drawn) [US10202378, Example 145] >= 6
Satisfied

Has CCOC(=O)c1c(C)[nH]c2c(=O)n(C)cc(C#CC(C)(O)C3CCOC3)c12 (stereo not drawn) [US10202378, Example 7] a recorded pIC50 greater than or equal to 6?
Satisfied

Could you please find out whether CC(=O)N1CCC(COC(=O)c2c(C)[nH]c3c(=O)n(C)cc(C#CC(C)(C)O)c23)CC1 [US10202378, Example 144] has pIC50 that meets 6 or exceeds it?
Satisfied

# bool: pIC50 of CCOC(=O)c1c(C)[nH]c2c(=O)n(CC3CC3)cc(C#CC(C)(C)O)c12 [US10202378, Example 52] >= 6
Not satisfied

Decide: pIC50 of Cc1[nH]c2c(=O)n(C)cc(C#CC(C)(O)c3ccccc3)c2c1C(=O)OC(C)C (stereo not drawn) [US10202378, Example 161] >= 6?
Satisfied

Hi team, for CCOC(=O)c1c(C)[nH]c2c(=O)n(C)cc(C#CC(C)(O)c3nccs3)c12 (stereo not drawn) [US10202378, Example 68] , is the recorded pIC50 at or above 6?
Satisfied

Test whether the compound CN(C)C(=O)c1c[nH]c2c(=O)n(C)cc(C#CC(C)(C)O)c12 [US10202378, Example 171] records pIC50 of 6 or higher.
Not satisfied

pIC50 >= 6 for CCOC(=O)c1c(C)[nH]c2c(=O)n(C)cc(C#CC(C)(O)CNc3ccccc3)c12 (stereo not drawn) [US10202378, Example 14] ?
Not satisfied

API: above_or_equal(metric=pIC50, cutoff=6) for item CCOC(=O)c1c(C)[nH]c2c(=O)n(C)cc(C#CC(O)(c3ccc(N(C)C)cc3)C(F)(F)F)c12 (stereo not drawn) [US10202378, Example 3]
Satisfied

More entries:
Kindly determine if pIC50 recorded for Cc1[nH]c2c(=O)n(C)cc(C#CC(C)(C)O)c2c1C(=O)OCC1CC1 [US10202378, Example 155] is above or exactly 6.
Satisfied

Could you please find out whether CCOC(=O)c1c(C)[nH]c2c(=O)n(C)cc(C#CC(C)(O)c3cccc(C)c3)c12 (stereo not drawn) [US10202378, Example 29] has pIC50 that meets 6 or exceeds it?
Satisfied

Given the entry CCOC(=O)c1c(C)[nH]c2c(=O)n(C)cc(C#CC3(O)CCN(C(=O)CC)CC3)c12 [US10202378, Example 10] , answer whether its pIC50 meets or surpasses 6.
Not satisfied

Check this compound for pIC50 at or above 6: CCOC(=O)c1c(C)[nH]c2c(=O)n(C)cc(C#CC(C)(O)C3(C)CC3)c12 (stereo not drawn) [US10202378, Example 4]
Satisfied

Hi team, for CCOC(=O)c1c(C)[nH]c2c(=O)n(C)cc(C#CC(C)(C)N)c12 [US10202378, Example 67] , is the recorded pIC50 at or above 6?
Not satisfied

Assess whether reported pIC50 for Cc1[nH]c2c(=O)n(C)cc(C#CC(C)(C)O)c2c1C(=O)OC(C)C(C)C (stereo not drawn) [US10202378, Example 152] sits at 6 or higher.
Satisfied

Please check the record Cc1cc([C@](C)(O)C#Cc2cn(C)c(=O)c3[nH]c(C)c(C(=O)OC(C)C(C)C)c23)no1 (stereo partly drawn) [US10202378, Example 142] and state if its pIC50 is at or above 6.
Satisfied

Has CCC(C)(C)OC(=O)c1c(C)[nH]c2c(=O)n(C)cc(C#CC(C)(O)C3CC3)c12 (stereo not drawn) [US10202378, Example 138] a recorded pIC50 greater than or equal to 6?
Satisfied

I'd appreciate it if you could say whether Cc1[nH]c2c(=O)n(C)cc(C#CC(C)(O)C3CC3)c2c1-c1nnc(CO)o1 (stereo not drawn) [US10202378, Example 206] has pIC50 at least equal to 6.
Satisfied

Reported pIC50 at or above 6? CC(=O)NCCCOC(=O)c1c(C)[nH]c2c(=O)n(C)cc(C#CC(C)(O)C3CC3)c12 (stereo not drawn) [US10202378, Example 140]
Satisfied
